Data provenance is PubChem BioAssay (EPA / NIEHS).

# Test Name: TOX21_p53_BLA_p3_viability: Viability Assessment in the Tox21 HCT-116 p53 Agonism Beta-lactamase Assay, Phase 3 (AID 2283593);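 also: cells exposed to compound for 16 h before reading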
Records with an inconclusive call do not appear. Activity calls are given as the source filed them. The calls were made as follows: active = hit-call score of the fitted dose curve at least 0.9, where 1 is the maximum; inconclusive = response in the unintended direction; inactive = score below 0.9.

Compound	outcome
CC(C)c1cccc(C(C)C)c1N	inactive
CC1(C)CCC[C@]2(C)[C@H]3CC(=O)O[C@]3(C)CC[C@@H]12	inactive
CCCC1CCCC(=O)O1 (stereo not drawn)	inactive

---

# Test Name: ATG_FoxO_CIS: Attagene CIS-FACTORIAL HepG2 Assay for human Forkhead box O (FoxO) (AID 2282943)
# Particulars: HepG2 Attagene cis-reporter, FoxO element, mRNA; actives raise or lower the signal
Calls of active or inactive are those of the source. The calls were made as follows: active = hit-call score of the fitted dose curve at least 0.9, where 1 is the maximum; inactive = score below 0.9.
Select the matching outcome among active, inactive

The examples below pair each entry with its known result.
Compound	Class Assignment
C[Si]1(C)O[Si](C)(C)O[Si](C)(C)O[Si](C)(C)O[Si](C)(C)O1	inactive
O=C(O[C@@H]1Cc2c(O)cc(O)cc2O[C@@H]1c1cc(O)c(O)c(O)c1)c1cc(O)c(O)c(O)c1	inactive
Nc1ccc(Cl)c(N)c1	inactive
CCCCC(=O)O	inactive
CC(C)CCOCc1ccccc1	inactive

I'd appreciate the recorded outcome for "CN(C)c1ccc2nc3ccc(=[N+](C)C)cc-3sc2c1" from this test.
inactive

# lookup: test call for "CC(C)=CCCC(C)=CC#N"
inactive

---

# Read-out: Matrix Metallopeptidase 1 (MMP1), MMP1 (gene 4312)
# Test Name: BSK_MyoF_MMP1: BioMAP Diversity Plus: MyoF Assay for Matrix Metallopeptidase 1 (MMP1) Biomarker Activity (AID 2284268)
# Particulars: primary human lung fibroblasts
Active and inactive are the calls of the source. Rule for the calls: active = hit-call score of the fitted dose curve at least 0.9, where 1 is the maximum; inactive = score below 0.9.
Write down one outcome, taken from T for active, F for inactive

Chemical String	Class Assignment
C=CC(=O)OCCCCCCOC(=O)C=C	T
COc1ccc(C(=O)c2ccccc2)c(O)c1	F
c1ccc2c(c1)[nH]c1ccccc12	F
O=C(Oc1ccccc1)c1ccccc1C(=O)Oc1ccccc1	F
C=CC(=O)OCCCCCCCC(C)C	F
CC(C)[N+](C)(CCOC(=O)C1c2ccccc2Oc2ccccc21)C(C)C	F

What was the test verdict on "Nc1cccc(N)n1" ?
F

---

# Target Or Test System: Glucocorticoid receptor (Homo sapiens) (UniProt P04150)
# Sequence (P04150 whole entry, looked up): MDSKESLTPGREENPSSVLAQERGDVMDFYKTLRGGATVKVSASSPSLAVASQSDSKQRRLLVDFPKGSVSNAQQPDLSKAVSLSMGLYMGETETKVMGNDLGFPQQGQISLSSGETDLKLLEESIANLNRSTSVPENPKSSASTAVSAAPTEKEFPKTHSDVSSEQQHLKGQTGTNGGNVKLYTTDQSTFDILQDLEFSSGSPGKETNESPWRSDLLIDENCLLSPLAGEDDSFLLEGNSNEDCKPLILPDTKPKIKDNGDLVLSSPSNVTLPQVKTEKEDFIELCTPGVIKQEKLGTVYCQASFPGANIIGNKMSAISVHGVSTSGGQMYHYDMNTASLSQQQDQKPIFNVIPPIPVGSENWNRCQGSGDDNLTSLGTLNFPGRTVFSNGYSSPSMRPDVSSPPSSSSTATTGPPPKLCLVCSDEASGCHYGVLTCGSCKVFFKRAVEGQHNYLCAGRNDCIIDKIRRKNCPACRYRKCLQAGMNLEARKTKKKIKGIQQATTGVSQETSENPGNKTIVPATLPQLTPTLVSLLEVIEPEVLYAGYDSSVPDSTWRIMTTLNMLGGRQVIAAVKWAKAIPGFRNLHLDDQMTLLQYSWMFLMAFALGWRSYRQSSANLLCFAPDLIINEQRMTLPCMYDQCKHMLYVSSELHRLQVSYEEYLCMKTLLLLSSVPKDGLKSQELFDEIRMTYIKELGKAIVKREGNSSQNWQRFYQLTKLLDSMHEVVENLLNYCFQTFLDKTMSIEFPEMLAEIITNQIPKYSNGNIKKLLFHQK
# Test Name: NVS_NR_hGR: NovaScreen (NVS) Nuclear Receptor Binding Assay for human Glucocorticoid Receptor (GR) (AID 2283363)
Records with an inconclusive call do not appear. Active and inactive are the calls of the source. How the source made its calls: active means hit-call score of the fitted dose curve at least 0.9, where 1 is the maximum; inconclusive means response in the unintended direction; inactive means score below 0.9.
Select the correct class. Options are True (active), False (inactive) and nothing else.

Use these answered entries as a reference point.
Compound	Class Assignment
CCCCCCCOC(=O)c1ccc(O)cc1	True
CC/C=C\C/C=C\C/C=C\CCCCCCCC(=O)OC	True

Per the assay record, what outcome was assigned to "CC(C)[N+](C)(CCOC(=O)C1c2ccccc2Oc2ccccc21)C(C)C" ?
False

Please let me know the test result on file for "CCOC(=O)/C=C\C(=O)OCC" .
False

Per the assay record, what outcome was assigned to "O=C(O)c1cc(O)c2ccccc2c1O" ?
True

Kindly provide the recorded test outcome for the following compound: "C=C1C[C@H]2[C@@H]3C=C(C)C4=CC(=O)CC[C@]4(C)[C@H]3CC[C@]2(C)[C@@]1(OC(C)=O)C(C)=O"
True

Hi, sorry to bother you, what did the test record for C=C(C)C1CC=C(C)CC1 (centres undefined) ?
False

Please let me know the test result on file for "O=S(=O)(O)c1ccc(N=Nc2c(O)ccc3ccccc23)cc1" .
True

In this assay, the call recorded for "CCc1cccc(CC)c1" was what?
False
